The origin of these recorded values is ChEMBL document CHEMBL4304768.

- assay_protocol: Stability in human plasma assessed as percentage intact peptide at 100 uM incubated for 48 hrs by LC-HRMS analysis
- Type: ADME, cell-free
- assay_context: read-out: Stability
reported_metric: remaining at 48 h, 100 µM (%)

- compound_string: "CN[C@@H](CCCNC(=N)N)C(=O)N[C@@H](CCCNC(=N)N)C(=O)N1CCC[C@H]1C(=O)N[C@@H](Cc1ccc(O)cc1)C(=O)N[C@H](C(=O)N[C@@H](CC(C)C)C(=O)O)C(C)(C)C.O=C(O)C(F)(F)F.O=C(O)C(F)(F)F.O=C(O)C(F)(F)F"
  reported_metric: "remaining at 48 h, 100 µM"
  reading: 86.8
- compound_string: "CCC(=O)N[C@@H](CCCNC(=N)N)C(=O)N[C@@H](CCCNC(=N)N)C(=O)N1CCC[C@H]1C(=O)N[C@@H](Cc1ccc(O)cc1)C(=O)N[C@H](C(=O)N[C@@H](CC(C)C)C(=O)O)C(C)(C)C"
  reported_metric: "remaining at 48 h, 100 µM"
  reading: 92.5
